assay: Oral DRF and systemic exposure in NHP; type: in vivo, Cynomolgus monkeys; conditions: male, cynomolgus monkey, in vivo, po, 50 mg/kg/day
value kind: AUC(0-t)
Could you write the number and then its unit?

Query string: Find the recorded AUC(0-t) belonging to Clc1ccc2c(NCC34CCCN3CCC4)ccnc2c1 [MG3] and report it.
Result string: 802 ng·h/mL

* * *

assay: Oral DRF and systemic exposure in NHP; assay type: in vivo, Cynomolgus monkeys; settings: female, cynomolgus monkey, in vivo, po, 50 mg/kg/day
value kind: AUC(0-t) (ng·h/mL)
State the answer as a number, implicitly in ng·h/mL.

Query string: Find the recorded AUC(0-t) belonging to `Clc1ccc2c(NCC34CCCN3CCC4)ccnc2c1` and report it.
Result string: 989

* * *

test: 7-day oral dose range finding (DRF) and systemic exposure in rats; type: in vivo, Sprague Dawley rats; conditions: both sexes, Sprague Dawley, rat, in vivo; oral, 7 days, rats; read-out: maximum tolerated dose (MTD)
value kind: MTD at 7 days (mg/kg/day)
State the answer as a number, implicitly in mg/kg/day.

Query string: Find the recorded MTD at 7 days belonging to Clc1ccc2c(NCC34CCCN3CCC4)ccnc2c1 [MG3] and report it.
Result string: 120

* * *

tested on: Pf-3D7 gametocytes >95% Stage V; test: Gametocyte luciferase assay (3D7elo1-pfs16-CBG99); assay type: cell-based, P. falciparum; conditions: Plasmodium falciparum, 3D7, read-out: Pf-3D7 gametocytes IC50 (nM), >95% Stage V
I'd appreciate it if you could supply IC50 values for the items below.
Could you write the number and then its unit?

Query string: Find the recorded IC50 belonging to CN(C)c1ccc2nc3ccc(=[N+](C)C)cc-3sc2c1 [Methylene Blue, reference compound] and report it.
Result string: 145 nM

Query string: Find the recorded IC50 belonging to `Clc1ccc2c(NCC34CCCN3CCC4)ccnc2c1` and report it.
Result string: 10700 nM

Query string: Find the recorded IC50 belonging to CCN(CC)CCCC(C)Nc1ccnc2cc(Cl)ccc12 (stereo not drawn) and report it.
Result string: 11700 nM

* * *

experiment: Oral DRF and systemic exposure in NHP; assay type: in vivo, Cynomolgus monkeys; conditions: female, cynomolgus monkey, in vivo, po, 50 mg/kg/day
value kind: Cmax (ng/mL)
State the answer as a number, implicitly in ng/mL.

Query string: Find the recorded Cmax belonging to `Clc1ccc2c(NCC34CCCN3CCC4)ccnc2c1` and report it.
Result string: 72.7

* * *

assay: 7-day oral dose range finding (DRF) and systemic exposure in rats; format: in vivo, Sprague Dawley rats; conditions: female, Sprague Dawley, rat, in vivo, po, 60 mg/kg/day, Cmax
value kind: Cmax (ng/mL)
State the answer as a number, implicitly in ng/mL.

Query string: Find the recorded Cmax belonging to `Clc1ccc2c(NCC34CCCN3CCC4)ccnc2c1` and report it.
Result string: 646

* * *

Experiment: Intrinsic clearance in hepatocytes
Assay type: in vitro ADME
Conditions: rat hepatocytes
Protocol: An automatic liquid handling system (Multiprobe II EX, Packard) was used for sampling. […] Half-life and CLint were determined from the concentration (counts) remaining at the different sampling points using the LC-MS/MS method. The slope was calculated using linear regression analysis of the curve (natural logarithmic area of the compound remaining against the time) and converted into the half-life (t1/2) and CLint expressed as µL/min/million cells and mL/min/kg, respectively.
value kind: CLint scaled at 1 µM (mL/min/kg)
State the answer as a number, implicitly in mL/min/kg.

Query string: Find the recorded CLint scaled at 1 µM belonging to `Clc1ccc2c(NCC34CCCN3CCC4)ccnc2c1` and report it.
Result string: 51

* * *

Test: 7-day oral dose range finding (DRF) and systemic exposure in rats
Assay type: in vivo, Sprague Dawley rats
Settings: male, Sprague Dawley, rat, in vivo, po, 30 mg/kg/day, AUC0–48
Description: Seven days oral DRF in rats and dog, and five days oral DRF in Non-Human Primates (NHP) were performed using Sprague Dawley rats (n = 3/time point) of both sexes, one male and one female dog Beagle (Marshall/Green Hill) and one male and one female monkeys/Cynomolgus (Noveprim Ltd., Mahebourg Mauritius,). […] No Observed Effects Levels (NOEL) were determined. […] Body weight was recorded pre-test, and on Days 1, 4 and 7. Food consumption was recorded from Days 1 to 4 and 4 to 7. […]
value kind: AUC(0-t) (ng·h/mL)
State the answer as a number, implicitly in ng·h/mL.

Query string: Find the recorded AUC(0-t) belonging to `Clc1ccc2c(NCC34CCCN3CCC4)ccnc2c1` and report it.
Result string: 2460

* * *

test: in vivo; set-up: species or system male Sprague Dawley rats; settings: male, Sprague Dawley, rat, po, 30 mg/kg
value kind: half-life (h)
State the answer as a number, implicitly in h.

Query string: Find the recorded half-life belonging to `Clc1ccc2c(NCC34CCCN3CCC4)ccnc2c1` and report it.
Result string: 10.7

* * *

test system: P. falciparum field isolates; experiment: Chemosensitivity assay on field isolates; format: cell-based; conditions: Plasmodium falciparum, read-out: P. falciparum IC50 nM, Field Isolates, mean of 10 field isolates, Thai Burmese Border
value kind: IC50 (nM)
State the answer as a number, implicitly in nM.

Query string: Find the recorded IC50 belonging to CCN(CC)CCCC(C)Nc1ccnc2cc(Cl)ccc12 (centres unmarked) [CQ, chloroquine] and report it.
Result string: 252

* * *

Test: Oral DRF and systemic exposure in NHP
Type: in vivo, Cynomolgus monkeys
Conditions: cynomolgus monkey, plasma; Female NHP, Day 5, 50 mg/kg/day oral; read-out: t1/2, z (converted)
Experimental: Seven days oral DRF in rats and dog, and five days oral DRF in Non-Human Primates (NHP) were performed using Sprague Dawley rats (n = 3/time point) of both sexes, one male and one female dog Beagle (Marshall/Green Hill) and one male and one female monkeys/Cynomolgus (Noveprim Ltd., Mahebourg Mauritius,). […] No Observed Effects Levels (NOEL) were determined. […] Body weight was recorded pre-test, and on Days 1, 4 and 7. Food consumption was recorded from Days 1 to 4 and 4 to 7. […]
value kind: half-life (h)
State the answer as a number, implicitly in h.

Query string: Find the recorded half-life belonging to `Clc1ccc2c(NCC34CCCN3CCC4)ccnc2c1` and report it.
Result string: 22.2

* * *

assay: 7-day oral dose range finding (DRF) and systemic exposure in rats; type: in vivo, Sprague Dawley rats; details: male, Sprague Dawley, rat, in vivo, po, 120 mg/kg/day, AUC0–24
value kind: AUC(0-t)
Could you write the number and then its unit?

Query string: Find the recorded AUC(0-t) belonging to `Clc1ccc2c(NCC34CCCN3CCC4)ccnc2c1` and report it.
Result string: 17.4 µg·h/mL

* * *

target: CYP2C19 (Homo sapiens, UniProt P33261); assay: in vitro
Sequence (P33261 whole entry): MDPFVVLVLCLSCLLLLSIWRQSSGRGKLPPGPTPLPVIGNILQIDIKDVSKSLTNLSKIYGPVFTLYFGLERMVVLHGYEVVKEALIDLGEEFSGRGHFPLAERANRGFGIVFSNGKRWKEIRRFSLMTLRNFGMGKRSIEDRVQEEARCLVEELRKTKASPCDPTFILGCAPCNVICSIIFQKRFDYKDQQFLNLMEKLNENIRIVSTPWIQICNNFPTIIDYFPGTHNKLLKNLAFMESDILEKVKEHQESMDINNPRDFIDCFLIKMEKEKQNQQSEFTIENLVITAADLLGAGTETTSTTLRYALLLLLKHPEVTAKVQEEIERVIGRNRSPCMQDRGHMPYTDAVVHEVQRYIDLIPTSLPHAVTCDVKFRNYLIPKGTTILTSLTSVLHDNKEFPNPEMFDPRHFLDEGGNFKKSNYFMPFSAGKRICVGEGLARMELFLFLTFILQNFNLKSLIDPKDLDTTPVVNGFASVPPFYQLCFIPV
value kind: inhibition at 3 µM

Query string: Find the recorded inhibition at 3 µM belonging to `Clc1ccc2c(NCC34CCCN3CCC4)ccnc2c1` and report it.
Result string: < 3%

* * *

target: CYP2C9 (Homo sapiens); test: in vitro
Sequence (P11712 whole entry): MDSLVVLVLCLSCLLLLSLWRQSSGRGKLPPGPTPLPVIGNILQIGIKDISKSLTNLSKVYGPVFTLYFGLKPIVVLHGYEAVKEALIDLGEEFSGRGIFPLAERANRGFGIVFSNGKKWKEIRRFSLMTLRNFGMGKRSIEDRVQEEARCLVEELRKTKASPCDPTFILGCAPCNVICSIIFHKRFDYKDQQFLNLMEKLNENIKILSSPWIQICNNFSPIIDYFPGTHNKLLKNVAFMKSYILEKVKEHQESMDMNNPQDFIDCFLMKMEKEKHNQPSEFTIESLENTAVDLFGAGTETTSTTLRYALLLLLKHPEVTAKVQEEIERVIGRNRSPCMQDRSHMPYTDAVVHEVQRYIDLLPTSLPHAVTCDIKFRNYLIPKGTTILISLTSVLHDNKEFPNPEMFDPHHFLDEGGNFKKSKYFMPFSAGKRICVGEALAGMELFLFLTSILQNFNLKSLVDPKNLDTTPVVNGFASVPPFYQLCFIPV
value kind: inhibition at 3 µM
Could you write the number and then its unit?

Query string: Find the recorded inhibition at 3 µM belonging to Clc1ccc2c(NCC34CCCN3CCC4)ccnc2c1 [MG3] and report it.
Result string: 8.8%

* * *

experiment: Intrinsic clearance in hepatocytes; assay type: in vitro ADME; conditions: dog hepatocytes
value kind: CLint scaled at 1 µM (mL/min/kg)
State the answer as a number, implicitly in mL/min/kg.

Query string: Find the recorded CLint scaled at 1 µM belonging to Clc1ccc2c(NCC34CCCN3CCC4)ccnc2c1 [MG3] and report it.
Result string: 111

* * *

assay: in vivo; parameters: species or system male Sprague Dawley rats; conditions: male, Sprague Dawley, rat, po, 30 mg/kg
value kind: AUC(0-inf) (ng·h/mL)
State the answer as a number, implicitly in ng·h/mL.

Query string: Find the recorded AUC(0-inf) belonging to `Clc1ccc2c(NCC34CCCN3CCC4)ccnc2c1` and report it.
Result string: 4400

* * *

test: in vivo; design: species or system male Sprague Dawley rats; settings: male, Sprague Dawley, rat, iv, 10 mg/kg
value kind: AUC(0-t)

Query string: Find the recorded AUC(0-t) belonging to `Clc1ccc2c(NCC34CCCN3CCC4)ccnc2c1` and report it.
Result string: 1290 ng·h/mL

* * *

Target: CYP1A2 (Homo sapiens)
Sequence (P05177 1-516): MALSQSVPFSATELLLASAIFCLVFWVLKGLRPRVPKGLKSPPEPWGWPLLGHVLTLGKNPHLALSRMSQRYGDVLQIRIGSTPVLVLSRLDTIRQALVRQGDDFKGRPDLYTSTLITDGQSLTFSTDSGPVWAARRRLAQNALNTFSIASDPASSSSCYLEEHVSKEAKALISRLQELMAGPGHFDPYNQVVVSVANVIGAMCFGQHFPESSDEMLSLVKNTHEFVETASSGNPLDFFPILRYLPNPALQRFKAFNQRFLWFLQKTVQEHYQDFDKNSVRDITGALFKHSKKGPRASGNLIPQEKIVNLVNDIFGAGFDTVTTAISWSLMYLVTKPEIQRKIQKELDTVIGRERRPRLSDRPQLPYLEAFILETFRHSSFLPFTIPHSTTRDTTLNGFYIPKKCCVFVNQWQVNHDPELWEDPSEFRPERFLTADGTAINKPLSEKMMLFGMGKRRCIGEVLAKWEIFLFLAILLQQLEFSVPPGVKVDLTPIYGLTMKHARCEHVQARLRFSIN
Assay: in vitro
value kind: inhibition at 3 µM (%)
State the answer as a number, implicitly in %.

Query string: Find the recorded inhibition at 3 µM belonging to Clc1ccc2c(NCC34CCCN3CCC4)ccnc2c1 [MG3] and report it.
Result string: 12.1
